# measurementTarget: JAK2 kinase activity on STAT5 in TF1 cells (Homo sapiens)
# Sequence (O60674 whole entry): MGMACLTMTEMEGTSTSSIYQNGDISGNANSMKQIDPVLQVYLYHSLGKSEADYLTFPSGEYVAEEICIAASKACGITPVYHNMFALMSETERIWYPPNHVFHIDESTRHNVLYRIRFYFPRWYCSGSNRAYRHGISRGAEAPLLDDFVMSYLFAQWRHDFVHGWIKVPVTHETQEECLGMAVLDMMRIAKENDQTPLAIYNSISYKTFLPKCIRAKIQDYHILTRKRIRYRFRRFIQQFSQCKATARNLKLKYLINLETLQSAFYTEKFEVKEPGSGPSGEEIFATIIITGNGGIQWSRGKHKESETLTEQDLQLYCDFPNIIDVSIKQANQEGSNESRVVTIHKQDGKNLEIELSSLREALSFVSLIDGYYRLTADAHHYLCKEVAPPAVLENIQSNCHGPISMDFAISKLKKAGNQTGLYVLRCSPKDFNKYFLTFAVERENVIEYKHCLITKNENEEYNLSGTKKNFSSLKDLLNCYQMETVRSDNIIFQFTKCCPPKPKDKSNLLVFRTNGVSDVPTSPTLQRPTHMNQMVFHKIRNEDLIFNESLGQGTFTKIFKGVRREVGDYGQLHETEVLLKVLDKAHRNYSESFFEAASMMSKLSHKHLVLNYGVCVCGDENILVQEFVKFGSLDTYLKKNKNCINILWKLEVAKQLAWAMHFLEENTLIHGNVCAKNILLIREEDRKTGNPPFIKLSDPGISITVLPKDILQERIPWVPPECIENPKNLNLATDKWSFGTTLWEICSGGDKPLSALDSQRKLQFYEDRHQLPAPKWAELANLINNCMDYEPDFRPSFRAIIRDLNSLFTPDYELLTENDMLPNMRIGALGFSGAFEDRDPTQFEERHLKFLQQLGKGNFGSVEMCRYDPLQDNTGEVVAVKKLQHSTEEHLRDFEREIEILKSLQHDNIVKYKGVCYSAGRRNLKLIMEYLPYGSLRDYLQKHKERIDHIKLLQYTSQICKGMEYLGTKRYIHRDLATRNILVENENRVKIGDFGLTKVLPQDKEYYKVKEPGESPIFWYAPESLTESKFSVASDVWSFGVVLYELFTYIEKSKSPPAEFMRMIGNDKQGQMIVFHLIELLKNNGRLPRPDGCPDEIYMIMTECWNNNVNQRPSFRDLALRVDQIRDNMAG
# procedureSummary: pSTAT5 cell assay (MSD; TF1 cells, 30 ng/mL IL-3 stimulation)
# conditionDetails: 30 ng/mL IL-3, 15 minutes
# Method: The inhibitory potency of compounds of the disclosure against the JAK2 kinase activity on STAT5 was evaluated using an MSD-platform plate-based assay format. […] Cells were then lysed and pSTAT5 levels were quantitated using an MSD plate-based assay with anti-STAT5 antibodies. […]
Counter-ions that a name gives are not always drawn.
Answer each item with its documented IC50.

compound: C[C@@H]1CN(c2nc(-c3ccc(C#N)nc3)cn3nccc23)C(=O)[C@]1(C#N)C1CC1
measurementTarget: JAK2 kinase activity on STAT5 in TF1 cells (Homo sapiens)
IC50: > 10 µM

Look up IC50 for the entries below, preserving their order.
1. C[C@@H]1CN(c2nc(-c3cnn(C4CCCC4)c3)cn3ncc(F)c23)C(=O)[C@]1(C#N)C1CC1
2. C[C@@H]1CN(c2ccnn3cc(-c4cnc5cc(C#N)ccn45)cc23)C(=O)[C@]1(C#N)C1CC1 [Example 103, trifluoroacetate]
3. C[C@@H]1CN(c2ccnn3cc(-c4cccnc4F)cc23)C(=O)[C@]1(C#N)C1CC1

["1 to 5 µM", "> 10 µM", "> 10 µM"]
